The values you see were collected from ChEMBL document CHEMBL3638389.

molecular target: C-C chemokine receptor type 2 (Homo sapiens, UniProt P41597); assay: Radioligand Binding Assay: Radioligand binding assays were performed in CHO cells expressing human CCR2B and Galpha±16 coupling protein. All compounds were dissolved in DMSO and assays run at a final DMSO concentration of 0.5% (v/v). [125I]-labeled human MCP-1 was purchased from PerkinElmer. Unlabelled human MCP-1 was purchased from PeproTech.Compounds were serially diluted in DMSO before diluting into assay buffer (25 mM HEPES, pH 7.4, 5 mM MgCl2, 1 mM CaCl2, 0.5% BSA) with cryo preserved CHO cells expressing human CCR2B and the Galpha±16 coupling protein (30x10^3/well) and [125I]-MCP-1 (50 pM). The reaction was incubated at room temperature for 90 minutes before transferring to GF/C filter membrane (PerkinElmer) pre-treated with 0.3% polyethyleneimine for 2 hours at 4 C. The filter membrane was washed six times with ice cold wash buffer (25 mM HEPES, pH 7.4, 5 mM MgCl2, 1 mM CaCl2, 500 mM NaCl, 0.01% (m/v) azide), dried, and sealed in a RLB sample bag (Agilent Technologies).
Sequence (P41597 whole entry): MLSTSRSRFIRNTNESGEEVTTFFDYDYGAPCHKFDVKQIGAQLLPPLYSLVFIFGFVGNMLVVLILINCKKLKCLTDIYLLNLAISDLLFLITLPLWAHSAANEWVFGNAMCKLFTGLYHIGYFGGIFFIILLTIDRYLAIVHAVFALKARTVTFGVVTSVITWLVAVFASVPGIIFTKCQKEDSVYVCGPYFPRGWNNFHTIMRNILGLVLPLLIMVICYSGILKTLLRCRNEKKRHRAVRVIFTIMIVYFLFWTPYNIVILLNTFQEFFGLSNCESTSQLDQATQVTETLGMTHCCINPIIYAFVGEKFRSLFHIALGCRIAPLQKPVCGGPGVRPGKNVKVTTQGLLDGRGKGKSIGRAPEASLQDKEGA
Measured Property: Ki

-- ask Which value of Ki has been reported for CO[C@@H]1COCC[C@@H]1N[C@@H]1C[C@H]2CCC[C@@]2(C(=O)N2C[C@@H]3C[C@H]2CN3c2ccc(Cl)c(C(F)(F)F)c2)C1 in the records?
-- reply 17 nM
